- target.or.system: 5-hydroxytryptamine receptor 2B (Homo sapiens, UniProt P41595); note: assay procedure not described here
- Sequence (P41595 whole entry): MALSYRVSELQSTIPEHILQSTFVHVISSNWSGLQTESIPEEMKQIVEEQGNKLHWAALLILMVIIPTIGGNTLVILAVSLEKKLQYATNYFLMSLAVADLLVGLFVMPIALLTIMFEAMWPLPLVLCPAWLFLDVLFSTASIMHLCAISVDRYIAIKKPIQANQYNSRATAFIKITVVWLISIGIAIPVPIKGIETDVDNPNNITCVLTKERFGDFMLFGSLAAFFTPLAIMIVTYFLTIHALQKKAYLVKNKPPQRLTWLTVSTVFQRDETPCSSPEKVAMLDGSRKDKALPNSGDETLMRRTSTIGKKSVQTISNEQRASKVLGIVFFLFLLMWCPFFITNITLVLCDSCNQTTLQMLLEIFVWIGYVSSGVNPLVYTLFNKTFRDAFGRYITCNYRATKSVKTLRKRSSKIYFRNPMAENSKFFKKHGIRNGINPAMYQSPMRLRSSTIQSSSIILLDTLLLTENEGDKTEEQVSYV
- Type: functional, cell-based
property: AC50

| compound | target.or.system | property | val |
| --- | --- | --- | --- |
| CN(C)CCC(c1ccc(Cl)cc1)c1ccccn1 (centres undefined) | 5-hydroxytryptamine receptor 2B (Homo sapiens, UniProt P41595) | AC50 | > 10 µM |
| O=P1(NCCCl)OCCCN1CCCl (centres undefined) [IFOSFAMIDE] | 5-hydroxytryptamine receptor 2B (Homo sapiens, UniProt P41595) | AC50 | > 30 µM |
| C=CCc1ccccc1OCC(O)CNC(C)C (centres undefined) | 5-hydroxytryptamine receptor 2B (Homo sapiens, UniProt P41595) | AC50 | 16 µM |
| O=C(O)/C=C/c1ccc(Cn2ccnc2)cc1 | 5-hydroxytryptamine receptor 2B (Homo sapiens, UniProt P41595) | AC50 | > 30 µM |
| O=C(NCCNCC(O)COc1ccc(O)cc1)N1CCOCC1 (centres undefined) | 5-hydroxytryptamine receptor 2B (Homo sapiens, UniProt P41595) | AC50 | > 30 µM |
| CC[C@H]1OC(=O)[C@H](C)[C@@H](O[C@H]2C[C@@](C)(OC)[C@@H](O)[C@H](C)O2)[C@H](C)[C@@H](O[C@@H]2O[C@H](C)C[C@H](N(C)C)[C@H]2O)[C@](C)(O)C[C@@H](C)CN(C)[C@H](C)[C@@H](O)[C@]1(C)O | 5-hydroxytryptamine receptor 2B (Homo sapiens, UniProt P41595) | AC50 | > 10 µM |
| CC(CC(c1ccccc1)c1ccccc1)NC(C)(C)C (centres undefined) | 5-hydroxytryptamine receptor 2B (Homo sapiens, UniProt P41595) | AC50 | > 30 µM |
| CCOc1ccccc1OCC1CNCCO1 (centres undefined) | 5-hydroxytryptamine receptor 2B (Homo sapiens, UniProt P41595) | AC50 | > 10 µM |
| O=[N+]([O-])O[C@@H]1CO[C@H]2[C@@H]1OC[C@@H]2O [ISOSORBIDE MONONITRATE] | 5-hydroxytryptamine receptor 2B (Homo sapiens, UniProt P41595) | AC50 | > 10 µM |

---

- target.or.system: UniProt P35348
- Sequence (P35348 whole entry): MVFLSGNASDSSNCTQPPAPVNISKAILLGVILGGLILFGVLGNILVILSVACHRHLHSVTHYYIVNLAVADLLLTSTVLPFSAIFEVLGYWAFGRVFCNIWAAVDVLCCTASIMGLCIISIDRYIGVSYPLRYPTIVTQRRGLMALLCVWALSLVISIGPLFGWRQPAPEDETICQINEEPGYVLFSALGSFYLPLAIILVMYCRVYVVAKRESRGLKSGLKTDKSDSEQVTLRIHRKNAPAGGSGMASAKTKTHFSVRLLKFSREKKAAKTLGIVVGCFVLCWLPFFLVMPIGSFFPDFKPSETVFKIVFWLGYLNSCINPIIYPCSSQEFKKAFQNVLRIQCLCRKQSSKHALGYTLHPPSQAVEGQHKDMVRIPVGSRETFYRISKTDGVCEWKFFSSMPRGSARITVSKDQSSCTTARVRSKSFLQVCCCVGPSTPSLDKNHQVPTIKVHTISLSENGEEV
- Format: functional, cell-based
property: AC50

| compound | val |
| --- | --- |
| c1ccc([C@H]2CN3CCSC3=N2)cc1 | > 30 µM |
| COC1=C(OC)C(=O)C(C/C=C(\C)CC/C=C(\C)CC/C=C(\C)CC/C=C(\C)CC/C=C(\C)CC/C=C(\C)CC/C=C(\C)CC/C=C(\C)CC/C=C(\C)CCC=C(C)C)=C(C)C1=O | > 30 µM |
| COc1ccccc1OCC(O)CN1CCN(CC(=O)Nc2c(C)cccc2C)CC1 (stereo not drawn) | 1.7 µM |
